Target: T1, R^525–610 A573S, N6His- and GST-tagged recombinant protein (maize)
T1 chain: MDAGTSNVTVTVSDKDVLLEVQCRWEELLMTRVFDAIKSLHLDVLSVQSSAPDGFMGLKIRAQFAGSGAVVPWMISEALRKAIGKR
Test: biological repeat 2
measured parameter: Kd (nM)
Write the number in nM without appending the unit.

Which Kd is listed for R^525–610 V568S, N6His- and GST-tagged recombinant protein (domain or fragment) MDAGTSNVTVTVSDKDVLLEVQCRWEELLMTRVFDAIKSLHLDSLSVQASAPDGFMGLKIRAQFAGSGAVVPWMISEALRKAIGKR ?
250
